Experiment: Selectivity index, ratio of CC50 for Swiss mouse peritoneal macrophages to IC50 for antimony-sensitive Leishmania amazonensis MHOM/BR/1989/BA199 promastigote
Format: functional
Record form. Attribute: Ratio CC50/IC50. Fill in for each entry.
Numbers only.

Previously resolved entries follow.
O=C1C=C(n2cc(CN3C(=O)c4ccccc4C3=O)nn2)C(=O)c2ccccc21    0.11
CC1(C)CCC2=C(O1)c1ccccc1C(=O)C2=O    0.27
CC1(C)OC2=C(C(=O)C(=O)c3ccccc32)C1n1cc(-c2ccccc2)nn1 (stereo not drawn)    3.08
CC1(C)OC2=C(C(=O)C(=O)c3ccccc32)C1n1cc(-c2ccc(F)cc2)nn1 (stereo not drawn)    0.75

Report Ratio CC50/IC50 for every entry below.
1. O=C1C=C(n2cc(-c3ccc(Br)cc3)nn2)C(=O)c2ccccc21
2. CCC(C)(O)c1cn(C2CC(C)(C)OC3=C2C(=O)c2ccccc2C3=O)nn1 (stereo not drawn)

Response:
1. 0.37
2. 0.27

Provide the reported Ratio CC50/IC50 of each entry below, same order.
1. COc1ccc(-c2cn(C3C4=C(OC3(C)C)c3ccccc3C(=O)C4=O)nn2)cc1 (stereo not drawn)
2. CC1(C)CC2=C(O1)C(=O)c1ccccc1C2=O
3. CCCCCCc1cn(C2C3=C(OC2(C)C)C(=O)c2ccccc2C3=O)nn1 (stereo not drawn)
4. Cc1ccc(-c2cn(C3=CC(=O)c4ccccc4C3=O)nn2)cc1

Response:
1: 1.13; 2: 0.28; 3: 0.25; 4: 0.71

* * *

Test system: Leishmania infantum
Experiment: Ratio of potassium antimonyl tartrate IC50 to compound IC50 for antimony-sensitive Leishmania infantum MCAN/BR/2002/BH400 promastigote infected in Swiss mouse peritoneal macrophages
Type: functional
Record form. Attribute: Ratio IC50. Fill in for each entry.

Example entries and their recorded answers appear below.
O=C1C=C(n2cc(CN3C(=O)c4ccccc4C3=O)nn2)C(=O)c2ccccc21    2
O=C1C=C(n2cc(CO)nn2)C(=O)c2ccccc21    2
CC1(C)OC2=C(C(=O)C(=O)c3ccccc32)C1n1cc(-c2ccc(F)cc2)nn1 (configuration not stated)    15.5
CC1(C)OC2=C(C(=O)C(=O)c3ccccc32)C1n1cc(-c2ccc([N+](=O)[O-])cc2)nn1 (configuration not stated)    15.5
CC1(C)OC2=C(C(=O)C(=O)c3ccccc32)C1n1cc(-c2ccccc2)nn1 (configuration not stated)    15.5

For the 2 compounds below, give their Ratio IC50 values.
1. Cc1ccc(-c2cn(C3=CC(=O)c4ccccc4C3=O)nn2)cc1
2. Cc1ccc(-c2cn(C3C4=C(OC3(C)C)c3ccccc3C(=O)C4=O)nn2)cc1 (configuration not stated)

Response:
1: 2; 2: 15.5

Provide reported Ratio IC50 for each item, in the same order as listed.
1. COc1ccc(-c2cn(C3=CC(=O)c4ccccc4C3=O)nn2)cc1
2. O=C1C=C(n2cc(-c3ccccc3)nn2)C(=O)c2ccccc21
3. O=C1C=C(n2cc(-c3ccc(Br)cc3)nn2)C(=O)c2ccccc21
4. O=C1C=C(n2cc(-c3ccc([N+](=O)[O-])cc3)nn2)C(=O)c2ccccc21
5. COc1ccc(-c2cn(C3C4=C(OC3(C)C)c3ccccc3C(=O)C4=O)nn2)cc1 (configuration not stated)

Response:
1. 2
2. 2
3. 2
4. 2
5. 15.5
